Molecular target: T1, human TfR ectodomain fused to a mouse IgG1 Fc fragment (human, UniProt P02786 89-760)
T1 construct: extracellular domain; ectodomain fused to the N-terminal end of the Fc, made in-house; not shown: mouse IgG1 Fc fragment
T1 sequence (P02786 89-760): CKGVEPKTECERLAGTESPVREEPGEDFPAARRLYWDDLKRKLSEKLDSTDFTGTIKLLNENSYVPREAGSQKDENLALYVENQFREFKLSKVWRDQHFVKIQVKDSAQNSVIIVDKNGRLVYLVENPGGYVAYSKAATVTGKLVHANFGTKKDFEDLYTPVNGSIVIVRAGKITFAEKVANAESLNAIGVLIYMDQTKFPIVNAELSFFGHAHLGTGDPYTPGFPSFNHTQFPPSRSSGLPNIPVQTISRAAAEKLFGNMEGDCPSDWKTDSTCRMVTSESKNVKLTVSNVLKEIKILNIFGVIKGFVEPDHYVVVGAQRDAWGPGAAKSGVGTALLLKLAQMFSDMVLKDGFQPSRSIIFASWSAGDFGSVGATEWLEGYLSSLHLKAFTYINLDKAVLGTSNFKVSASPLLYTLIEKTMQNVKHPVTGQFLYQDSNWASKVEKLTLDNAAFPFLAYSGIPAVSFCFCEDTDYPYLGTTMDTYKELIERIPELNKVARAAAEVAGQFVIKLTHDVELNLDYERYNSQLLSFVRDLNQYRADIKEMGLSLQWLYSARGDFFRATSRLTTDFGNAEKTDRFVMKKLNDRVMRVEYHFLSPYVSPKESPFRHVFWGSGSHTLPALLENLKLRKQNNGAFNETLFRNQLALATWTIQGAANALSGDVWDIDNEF
Test: SPR, kinetic
observation_type: log10 koff (log10 of the value in s⁻¹)

binder: B8^V34 (VHH) VHH: EVQLVESGGGVVQPGGSLRLSCAASGEIRSINFMRWYRQAPGKQREWVAGFTRDGSTNYPDIAKGRFTISRDNAKNTVYLQIDSLKPEDTAVYYCYMLDTWGQGTQVTVSS
log10 koff: -1.61
--
binder: B8^V38 (VHH) VHH: EVQLVESGGGVVQPGGSLRLSCAASGEIRSINFMRWYRQAPGKQREWVAGFTRTGSTNYPDSAKGRFTISRDNAKNTVYLQIDSLKPEDTAVYYCYMLDTWGQGTQVTVSS
log10 koff: -1.72
--
binder: B8^V12 (VHH) VHH: EVQLVESGGGVVQPGGSLRLSCAASGEIFYINFMRWYRQAPGKQREWVAGFTRDGSTNYPDSAKGRFTISRDNAKNTVYLQIDSLKPEDTAVYYCYMLDTWGQGTQVTVSS
log10 koff: -2.77
--
binder: H1 (VHH, also called phage-H1 (as tracer)) VHH: EVQLVESGGGLVQPGGSLRLSCAASGFASHLYAIGWFRQAPGKEREKVSCISSNDGSTYYADSVKGRFTISRDTVKDMVYLQMNSLKPEDTAVYYCATDLTVHCFMAEYDWWGQGTQVTVSS
log10 koff: -2.26
--
binder: B8^V16 (VHH) VHH: EVQLVESGGGVVQPGGSLRLSCAASGEIFSINFMRWYRQAPGKQREQVAGFTRDGSTNYPDSAKGRFTISRDNAKNTVYLQIDSLKPEDTAVYYCYMLDTWGQGTQVTVSS
log10 koff: -1.88
--
binder: C5^V16h20 (VHH) VHH: EVQLVESGGGVVQPGGSLRLSCAASGTDFSINFIRWYRQAPGKGLEFVAGFTATGNTNYADSVKGRFTISRDNAKNAVYLQMNSLRPEDTAVYYCYILDKWGQGTQVTVSS
log10 koff: -1.40
--
binder: B8^V31 (VHH) VHH: EVQLVESGGGVVQPGGSLRLSCAASGEIKSINFMRWYRQAPGKQREWVAGFTRDGSTNYPDSAKGRFTISRDNAKNTVYLQIDSLKPEDTAVYYCYMLDTWGQGTQVTVSS
log10 koff: -1.66
--
binder: B8^h1 (VHH) VHH: EVQLVESGGGVVQPGGSLRLSCAASGEIFSINFMRWYRQAPGKGLEWVAGFTRDGSTNYPDSVKGRFTISRDNAKNTVYLQMNSLRPEDTAVYYCYMLDTWGQGTQVTVSS
log10 koff: -4.02
--
binder: H7 (VHH) VHH: EVQLVESGGGLVQAGGSLRLSCTASGRPISDYPMGWFRRAPGKDRELVASISRTGDGTYYANSMKERFTISRDNAQNTVSLQISSLKPEDTAVYYCGAGINPTRYWGQGTQVTVSS
log10 koff: -2.83
--
binder: B7 (VHH) VHH: QVQLVQSGGGLVQAGGSLTLSCTASGRPLSDYPMGWFRRAPEKERELVASISRTGDGTYYADGMRGRFTISRDNSENTVSLQMNNLKPEDTAVYYCGAGINPTKYWGQGTQVTVSS
log10 koff: -3.12
--
binder: B8^V29 (VHH) VHH: EVQLVESGGGVVQPGGSLRLSCAASGEIFSINFMRWYRQAPGKQREWVAGFTRDGSTNYPDSAKGRFTISRDNAKNTVYLQIDSLKPEDTAVYYCYMADTWGQGTQVTVSS
log10 koff: -1.77
--
binder: B8^V1 (VHH) VHH: EVQLVESGGGVVQPGGSLRLSCAADGEIFSINFMRWYRQAPGKQREWVAGFTRDGSTNYPDSAKGRFTISRDNAKNTVYLQIDSLKPEDTAVYYCYMLDTWGQGTQVTVSS
log10 koff: -2.96
--
binder: C5^V32 (VHH) VHH: EVQLVESGGGVVQPGGSLKLSCVASGTDFSINFIRWYSQAPGKQREFVAGFTATGNTNYADSMKGRLTISRDNTKNAVYLQIDSLKPEDTAVYYCYMLGKWGQGTQVTVSS
log10 koff: -1.61
--
binder: C5^h9 (VHH) VHH: EVQLVESGGGVVQPGGSLRLSCAASGTDFSINFIRWYRQAPGKGLEFVAGFTATGNTNYADSVKGRFTISRDNAKNTLYLQMNSLRPEDTAVYYCYMLDKWGQGTQVTVSS
log10 koff: -2.24
